biological target: AMACR-MBP (Homo sapiens, UniProt Q9UHK6); experiment: AMACR inhibitor IC50 determination; assay type: biochemical; conditions: 100 μM [2,3-3H]Pri-CoA, 0.3 μM AMACR-MBP, enzyme initiated
Sequence (Q9UHK6 whole entry): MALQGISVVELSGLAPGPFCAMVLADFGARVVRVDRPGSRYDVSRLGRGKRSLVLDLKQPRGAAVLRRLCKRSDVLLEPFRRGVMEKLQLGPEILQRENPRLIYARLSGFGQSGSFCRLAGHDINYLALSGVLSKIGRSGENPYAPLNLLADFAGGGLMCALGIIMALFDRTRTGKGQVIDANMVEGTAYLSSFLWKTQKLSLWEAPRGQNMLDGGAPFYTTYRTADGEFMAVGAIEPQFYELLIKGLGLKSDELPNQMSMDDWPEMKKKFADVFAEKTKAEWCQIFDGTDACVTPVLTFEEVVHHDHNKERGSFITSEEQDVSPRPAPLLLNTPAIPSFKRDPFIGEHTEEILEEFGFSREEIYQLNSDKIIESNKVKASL
pIC50: −log10 of the molar value.
Readout name: pIC50

| Molecule | Readout name | Val |
| --- | --- | --- |
| O=C1c2ccccc2[Se](=O)N1c1ccccc1 (stereo not shown) [ebselen oxide] | pIC50 | 6.10 |

====

target: AMACR-MBP (Homo sapiens); test: AMACR inhibitor IC50 determination; assay type: biochemical

| Given smiles | Result units | IC50 |
| --- | --- | --- |
| O=c1c2ccccc2[se]n1-c1ccccc1 | nM | 2790 |
